# System: green rice leafhopper (Nephotettix cincticeps)
# method: Test Example 1: Test for insecticidal activity (green rice leafhopper)
# Type: in vivo
# particulars: green rice leafhopper R-strain, spray on rice plant, 26° C., 24 hours, 3 replications, read-out: LC50 (median lethal concentration)
Rule: measured LC50 below 6 µg/mL gets MET; anything equal to or greater than 6 µg/mL gets NOT MET.

Study these solved cases before continuing.
> print(dat)
                                   compound    group
1  CC1(C)C(C(=O)OC(C#N)c2cccc(Oc3ccc(Br)cc3)c2)C1C(Br)C(Cl)(Cl)Br (stereo not drawn)      MET
2  CC1(C)[C@H](C(=O)OC(C#N)c2cccc(Oc3ccc(Br)cc3)c2)[C@H]1C(Br)C(Br)(Br)Br (stereo partly drawn)      MET
3  CC1(C)[C@H](C(=O)OC(C#N)c2cccc(Oc3ccc(Br)cc3)c2)[C@@H]1C(Br)C(Br)(Br)Br (stereo partly drawn)  NOT MET

Asked: Lab note: LC50 threshold 6 µg/mL. Does this compound come in strictly under it? CC1(C)C(C(=O)OC(C#N)c2cccc(Oc3ccc(F)cc3)c2)C1C(Br)C(Cl)(Cl)Br (stereo not drawn) [(B), reference compound]
Given back: NOT MET

Asked: Is it true that LC50 reported for CC1(C)C(C(=O)OC(C#N)c2cccc(Oc3ccccc3)c2)C1C(Br)C(Cl)(Cl)Br (stereo not drawn) [(A), reference compound] is less than 6 µg/mL?
Given back: MET

Asked: Consider CC1(C)C(C(=O)OC(C#N)c2cccc(Oc3ccc(Br)cc3)c2)C1C(Br)C(Br)(Br)Br (stereo not drawn) . Does its LC50 lie strictly below 6 µg/mL?
Given back: NOT MET
